Molecular target: PIM1 (human) (UniProt P11309)
Sequence (P11309 whole entry, looked up): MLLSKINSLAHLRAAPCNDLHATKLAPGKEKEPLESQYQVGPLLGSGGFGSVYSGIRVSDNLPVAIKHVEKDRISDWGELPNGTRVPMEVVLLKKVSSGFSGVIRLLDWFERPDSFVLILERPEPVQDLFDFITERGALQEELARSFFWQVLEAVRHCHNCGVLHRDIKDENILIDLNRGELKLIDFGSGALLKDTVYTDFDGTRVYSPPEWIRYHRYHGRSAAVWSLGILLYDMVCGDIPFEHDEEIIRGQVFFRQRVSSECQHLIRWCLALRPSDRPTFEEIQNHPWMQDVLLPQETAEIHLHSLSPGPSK
Conditions: compound 10.0 µM
// reported inhibition for each item listed
measured_endpoint: inhibition (%)

mol=O=C1Nc2cc(Br)ccc2/C1=C1/Nc2ccccc2/C1=N\O unit_string=% measured_number=0
mol=c1cc(-c2cnn3cc(-c4ccc(OCCN5CCCCC5)cc4)cnc23)ccn1 unit_string=% measured_number=0
mol=CC(C)[C@H](CO)Nc1nc(Nc2cc(N)cc(Cl)c2)c2ncn(C(C)C)c2n1 unit_string=% measured_number=6
mol=Cc1cc(I)ccc1Nc1c(C(=O)NOCC2CC2)cc(F)c(F)c1F unit_string=% measured_number=0
mol=CN(C)c1ccc(/C=C2\C(=O)Nc3ccccc32)cc1 unit_string=% measured_number=1
mol=Brc1c(Br)c(Br)c2[nH]nnc2c1Br unit_string=% measured_number=0
mol=CC(C)[C@H](CO)Nc1nc(Nc2ccc(C(=O)O)c(Cl)c2)c2ncn(C(C)C)c2n1 unit_string=% measured_number=10
mol=O=S(=O)(NCCNC/C=C/c1ccc(Br)cc1)c1cccc2cnccc12 unit_string=% measured_number=0
mol=NC(=O)c1ccc(-c2nc(-c3ccccn3)c(-c3ccc4c(c3)OCCO4)[nH]2)cc1 unit_string=% measured_number=2
mol=COc1cc2nccc(Oc3ccc(NC(=O)Nc4ccc(F)cc4F)c(F)c3)c2cc1OC unit_string=% measured_number=12
mol=NC(=O)c1sc(-c2ccsc2)cc1N unit_string=% measured_number=0
mol=O=S(=O)(c1cccc2c(O)nccc12)N1CCCNCC1 unit_string=% measured_number=19
mol=N#CC(=C(\N)Sc1ccccc1N)/C(C#N)=C(/N)Sc1ccccc1N unit_string=% measured_number=0
mol=COc1ccc(Cl)cc1NC(=O)Nc1cc(C)nc2ccccc12 unit_string=% measured_number=14
mol=O=C(c1ccc(Nc2nccc(-c3cc4ccccc4s3)n2)cc1)N1CCC(N2CCCC2)CC1 unit_string=% measured_number=22
mol=CC(C)N(CCC(=O)c1ccc2ccccc2c1)Cc1ccccc1 unit_string=% measured_number=0
mol=NC(=O)Nc1sc(-c2ccc(F)cc2)cc1C(N)=O unit_string=% measured_number=8
mol=Cc1cc2nc3c(=O)[nH]c(=O)nc-3n(C)c2cc1C=O unit_string=% measured_number=23
mol=O=S(=O)(c1cccc2c(Cl)cccc12)N1CCCNCC1 unit_string=% measured_number=31
mol=N#C/C(=C\c1ccc(O)c(O)c1)C(=O)NCc1ccccc1 unit_string=% measured_number=0
mol=COc1cc2c(Nc3ccc(NC(=O)c4ccccc4)cc3)ncnc2cc1OCCCN1CCOCC1 unit_string=% measured_number=8
mol=CC(C)(C)n1nc(-c2ccc(Cl)cc2)c2c(N)ncnc21 unit_string=% measured_number=4
mol=N#C/C(=C\c1ccc(O)c(O)c1)C(N)=S unit_string=% measured_number=30
mol=O=C1NC(=O)c2c1c1c3ccccc3[nH]c1c1[nH]c3ccccc3c21 unit_string=% measured_number=95
mol=NC(=O)c1ccc(-c2nc(-c3ccccn3)c(-c3ccc4c(c3)OCO4)[nH]2)cc1 unit_string=% measured_number=5
mol=O=C1NC(=O)c2cc(Nc3ccc(F)cc3)c(Nc3ccc(F)cc3)cc21 unit_string=% measured_number=60
mol=COc1nccc(-c2c(-c3ccc(F)cc3)ncn2[C@H]2CC[C@H](O)CC2)n1 unit_string=% measured_number=0
mol=C/C(O)=C(\C#N)C(=O)Nc1cc(Br)ccc1Br unit_string=% measured_number=23
mol=Nc1ccc(-c2cccc3c(=O)cc(N4CCOCC4)oc23)cc1 unit_string=% measured_number=78
mol=Fc1ccc(Cl)cc1-c1nc(Nc2ccncc2)c2nccnc2n1 unit_string=% measured_number=50
mol=COc1cc2ncnc(Nc3ccc(F)c(Cl)c3)c2cc1OCCCN1CCOCC1 unit_string=% measured_number=27

###

System: PRKACA (mouse)
Settings: compound 10.0 µM; accession and sequence are those of the human protein
// reported inhibition for each item listed
measured_endpoint: inhibition (%)

molecule=Nc1ccc(-c2cccc3c(=O)cc(N4CCOCC4)oc23)cc1 unit_string=% measured_number=0
molecule=Cc1cc(C)c(/C=C2\C(=O)Nc3ccccc32)[nH]1 unit_string=% measured_number=0
molecule=CC[C@@H](CO)Nc1nc(NCc2ccccc2)c2ncn(C(C)C)c2n1 unit_string=% measured_number=0
molecule="O=C(NC(NC(=S)Nc1ccc(F)c([N+](=O)[O-])c1)C(Cl)(Cl)Cl)C(c1ccccc1)c1ccccc1 (stereo not given)" unit_string=% measured_number=0
molecule=Brc1c(Br)c(Br)c2[nH]nnc2c1Br unit_string=% measured_number=0
molecule=Cn1cc(C2=C(c3ccc(Cl)cc3Cl)C(=O)NC2=O)c2ccccc21 unit_string=% measured_number=5
molecule=Cn1cc(C2=C(c3cn(CCCSC(=N)N)c4ccccc34)C(=O)NC2=O)c2ccccc21 unit_string=% measured_number=62
molecule=Cc1[nH]c(/C=C2\C(=O)Nc3ccc(S(=O)(=O)Cc4c(Cl)cccc4Cl)cc32)c(C)c1C(=O)N1CCC[C@@H]1CN1CCCC1 unit_string=% measured_number=1
molecule=CC(C)[C@H](CO)Nc1nc(Nc2cc(N)cc(Cl)c2)c2ncn(C(C)C)c2n1 unit_string=% measured_number=13
molecule=CN1CC[C@H](c2c(O)cc(O)c3c(=O)cc(-c4ccccc4Cl)oc23)[C@H](O)C1 unit_string=% measured_number=5

###

Target: PRKAA1 (human)
Conditions: compound 10.0 µM
// reported inhibition for each item listed
measured_endpoint: inhibition (%)

molecule=NC(=O)Nc1sc(-c2ccc(F)cc2)cc1C(N)=O measured_number=8
molecule=Nc1ccc(-c2cccc3c(=O)cc(N4CCOCC4)oc23)cc1 measured_number=0
molecule=CS(=O)(=O)CCNCc1nc(-c2ccc3ncnc(Nc4ccc(OCc5cccc(F)c5)c(Cl)c4)c3c2)cs1 measured_number=0
molecule=Cc1ccc(-c2nn(C(C)(C)C)c3ncnc(N)c23)cc1 measured_number=0
molecule=CN1CC[C@H](c2c(O)cc(O)c3c(=O)cc(-c4ccccc4Cl)oc23)[C@H](O)C1 measured_number=0
molecule=Brc1c(Br)c(Br)c2[nH]nnc2c1Br measured_number=0
molecule=O=C(c1ccc(Nc2nccc(-c3cc4ccccc4s3)n2)cc1)N1CCC(N2CCCC2)CC1 measured_number=63
molecule=O=S(=O)(c1cccc2c(Cl)cccc12)N1CCCNCC1 measured_number=0
molecule=NC(=O)c1ccc(-c2nc(-c3ccccn3)c(-c3ccc4c(c3)OCO4)[nH]2)cc1 measured_number=0
molecule=O=S(=O)(c1cccc2c(O)nccc12)N1CCCNCC1 measured_number=0
molecule=Cc1cc(C)c(/C=C2\C(=O)Nc3ccccc32)[nH]1 measured_number=50
molecule=O=c1cc(N2CCOCC2)nc2c3ccccc3ccn12 measured_number=7
molecule=CC(C)(C)n1nc(-c2cccc3ccccc23)c2c(N)ncnc21 measured_number=1
molecule=Cc1cc2nc3c(=O)[nH]c(=O)nc-3n(C)c2cc1C=O measured_number=0
molecule=NC(=O)c1ccc(-c2nc(-c3ccccn3)c(-c3ccc4c(c3)OCCO4)[nH]2)cc1 measured_number=0
molecule=C/C(O)=C(\C#N)C(=O)Nc1cc(Br)ccc1Br measured_number=0
molecule=Cc1cc(F)c(Nc2ncnc3cc(OCc4ccccc4)ccc23)cc1O measured_number=13
molecule=COc1nccc(-c2c(-c3ccc(F)cc3)ncn2[C@H]2CC[C@H](O)CC2)n1 measured_number=0
molecule=CN1CCC(Nc2ncc3ncnc(Nc4ccc(F)c(Cl)c4)c3n2)CC1 measured_number=0
molecule=CC(C)[C@H](CO)Nc1nc(Nc2cccc(Cl)c2)c2ncn(C(C)C)c2n1 measured_number=5
molecule=O=c1cc(N2CCOCC2)oc2c1ccc1ccccc12 measured_number=0
molecule=Cc1ccccc1C(=O)c1ccc(Nc2ccc(Br)cc2N)cc1Cl measured_number=0
molecule=Oc1ccc(-c2nc(-c3ccc(F)cc3)c(-c3ccncc3)[nH]2)cc1 measured_number=0
molecule=Cc1cc(I)ccc1Nc1c(C(=O)NOCC2CC2)cc(F)c(F)c1F measured_number=0
molecule=COc1cc2c(Nc3ccc(NC(=O)c4ccccc4)cc3)ncnc2cc1OCCCN1CCOCC1 measured_number=0
molecule=Fc1ccc(Cl)cc1-c1nc(Nc2ccncc2)c2nccnc2n1 measured_number=7
molecule=O=C1NC(=O)c2c1c1c3ccccc3n3c1c1c2c2ccccc2n1C1CCC3O1 measured_number=65
molecule=Cn1cc(C2=C(c3ccc(Cl)cc3Cl)C(=O)NC2=O)c2ccccc21 measured_number=0
molecule=COc1cc2ncn(-c3cc(OCc4ccccc4C(F)(F)F)c(C(N)=O)s3)c2cc1OC measured_number=7
molecule=CN(C)CCCn1cc(C2=C(c3c[nH]c4ccccc34)C(=O)NC2=O)c2ccccc21 measured_number=11
molecule=O=C1Nc2ccc(I)cc2/C1=C/c1cc(Br)c(O)c(Br)c1 measured_number=0
molecule=Cc1ccc(NC(=O)c2cccc(N(C)C)c2)cc1NC(=O)c1ccc(O)cc1 measured_number=0
molecule=c1cc(-c2cnn3cc(-c4ccc(OCCN5CCCCC5)cc4)cnc23)ccn1 measured_number=45
molecule=CCN(CC)CCNC(=O)c1c(C)[nH]c(/C=C2\C(=O)Nc3ccc(F)cc32)c1C measured_number=82
molecule=O=c1cc(N2CCOCC2)oc2c(-c3ccccc3)cccc12 measured_number=0
molecule=COc1ccc(Cl)cc1NC(=O)Nc1cc(C)nc2ccccc12 measured_number=0
molecule=O=S(=O)(NCCNC/C=C/c1ccc(Br)cc1)c1cccc2cnccc12 measured_number=17
molecule=CO[C@@H]1[C@H](N(C)C(=O)c2ccccc2)C[C@H]2O[C@]1(C)n1c3ccccc3c3c4c(c5c6ccccc6n2c5c31)C(=O)NC4 measured_number=64
molecule=c1ccc(-c2n[nH]cc2-c2ccnc3ccccc23)nc1 measured_number=0
molecule=N#C/C(=C\c1ccc(O)c(O)c1)C(N)=S measured_number=0
molecule=COc1cc2nccc(Oc3ccc(NC(=O)Nc4ccc(F)cc4F)c(F)c3)c2cc1OC measured_number=0
molecule=NC1N[N](=Cc2coc3ccccc3c2=O)->[Cu]([Cl])([Cl])[SH]=1 measured_number=16
molecule="CC1=C(O)C(=O)[C@@H]2OC2C1=O (stereo partly drawn)" measured_number=0
